- EXPERIMENTAL_PROTOCOL: Optical properties of the dyes (absorbance, emission, extinction coefficient, quantum efficiency)
- Type: physicochemical
OUTCOME_MEASURE: λ(ems) (nm)

CN(CCCCCC(=O)O)CCNC(=O)C(CS(=O)(=O)[O-])NC1=C(/C=C2/N(C)c3ccccc3C2(C)C)C(=O)/C1=C\C1=[N+](C)c2ccccc2C1(C)C (stereo not shown) [Compound 222]; 657
COc1cc(C(C)O)c([N+](=O)[O-])cc1OCCN(C)CCNC(=O)C(CS(=O)(=O)[O-])NC1=C(/C=C2/N(C)c3ccccc3C2(C)C)C(=O)/C1=C\C1=[N+](C)c2ccccc2C1(C)C (stereo not shown) [Compound 227]; 657
CN1/C(=C/C2=C([O-])C(=C/C3=[N+](C)c4ccccc4C3(C)C)/C2=O)C(C)(C)c2ccccc21 [Compound 220]; 640
COc1cc(C(C)OC(=O)Oc2ccc([N+](=O)[O-])cc2)c([N+](=O)[O-])cc1OCCNC(=O)C(CS(=O)(=O)[O-])NC1=C(/C=C2/N(C)c3ccccc3C2(C)C)C(=O)/C1=C\C1=[N+](C)c2ccccc2C1(C)C (stereo not shown) [Compound 230]; 661
